Target: full length Akt1^E17K (UniProt P31749 1-480, E17K)
Sequence (P31749 whole entry E17K): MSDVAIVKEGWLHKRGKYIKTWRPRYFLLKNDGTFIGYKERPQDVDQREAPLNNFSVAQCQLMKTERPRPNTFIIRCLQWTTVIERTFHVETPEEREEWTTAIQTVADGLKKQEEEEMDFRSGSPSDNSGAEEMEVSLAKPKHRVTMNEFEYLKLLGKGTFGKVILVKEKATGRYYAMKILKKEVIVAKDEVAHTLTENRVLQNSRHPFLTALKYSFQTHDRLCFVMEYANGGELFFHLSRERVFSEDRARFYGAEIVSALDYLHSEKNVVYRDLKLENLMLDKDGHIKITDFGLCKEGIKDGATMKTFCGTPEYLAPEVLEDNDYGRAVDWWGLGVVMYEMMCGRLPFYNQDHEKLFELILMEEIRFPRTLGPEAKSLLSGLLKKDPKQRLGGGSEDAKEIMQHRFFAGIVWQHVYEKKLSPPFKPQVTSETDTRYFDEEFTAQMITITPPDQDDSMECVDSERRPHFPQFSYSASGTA
Experiment: fluorescence polarisation
Non-standard residues stand in square brackets, D forms with d. No end group written: not given here.
Measurement Label: Kd (nM)

1) [dY][dL][dE][dA][dF] (also: label-modified, label not given here) [label-modified yleaf peptide used in fluorescence polarization] = 54
